Test: Kinetics of lactone ring opening in RBC (HPLC)
Format: in vitro ADME, human
Settings: human
measurement-name: half-life (h)
# number only, unit h dropped from output

GET /values?readout=half-life&item= CCC1(O)C(=O)OCc2c1cc1n(c2=O)Cc2c-1nc1ccccc1c2[Si](C)(C)C(C)(C)C (stereo in doubt)
1.32
